test system: MCF7; experiment: HRG-induced Akt activation (dPAkt = log2 pAkt/Akt HRG-stimulated minus log2 pAkt/Akt basal) (log2 ratio difference); higher = stronger HRG-induced Akt(T308) phosphorylation; conditions: miRNA mimic concentration 10 nM; time after transfection 72 h; heregulin 10 ng/ml; stimulation time 1 h
measurementName: HRG-induced Akt activation (log2)
Answers are plain numbers.

CCUCUGAAAUUCAGUUCUUCAG : 1.76
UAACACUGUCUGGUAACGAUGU : 1.04
UUGUGUCAAUAUGCGAUGAUGU : 1.77
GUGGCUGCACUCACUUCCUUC : 1.16
UGAGUAUUACAUGGCCAAUCUC : 1.74
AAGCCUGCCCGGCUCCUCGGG : 1.81
AGGGGGAAAGUUCUAUAGUCC : 1.2
CGCGGGUGCUUACUGACCCUU : 3.25
UAAGGUGCAUCUAGUGCAGAUAG : 2.27

Here's the next entry for you.
Query (sequence): AACAUCACAGCAAGUCUGUGCU ; field requested: HRG-induced Akt activation (log2)
1.32

---

test system: MCF7; assay: HRG-induced Akt activation (dPAkt = log2 pAkt/Akt HRG-stimulated minus log2 pAkt/Akt basal) (log2 ratio difference); higher = stronger HRG-induced Akt(T308) phosphorylation; conditions: miRNA mimic concentration 10 nM; time after transfection 72 h; heregulin 10 ng/ml; stimulation time 1 h
measurementName: HRG-induced Akt activation (log2)
Answers are plain numbers.

Recorded HRG-induced Akt activation (log2), per entry:
CAGCCACAACUACCCUGCCACU : 1.94
UAUGCAUUGUAUUUUUAGGUCC : 1.1
GGUCCAGAGGGGAGAUAGGUUC : 1.67

Batch of 5 sequences: report HRG-induced Akt activation (log2) for each.
1. UAGGACACAUGGUCUACUUCU
2. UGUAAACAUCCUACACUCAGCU
3. UAAUACUGCCGGGUAAUGAUGGA
4. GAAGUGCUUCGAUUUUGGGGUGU
5. AAUCACUAACCACACGGCCAGG

1. 1.04
2. 0.757
3. 1.08
4. 1.12
5. 1.79

Batch of 3 sequences: report HRG-induced Akt activation (log2) for each.
1. UUUUGCGAUGUGUUCCUAAUAU
2. CUGGAGAUAUGGAAGAGCUGUGU
3. UCACCAGCCCUGUGUUCCCUAG

1: 1.67; 2: 1.14; 3: 1.69

Batch of 3 sequences: report HRG-induced Akt activation (log2) for each.
1. GUGCAUUGUAGUUGCAUUGCA
2. AGGCAUUGACUUCUCACUAGCU
3. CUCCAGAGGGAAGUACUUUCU

1. 1.43
2. 1.66
3. 2.02

---

tested on: MCF7; assay: HRG-induced Akt activation (dPAkt = log2 pAkt/Akt HRG-stimulated minus log2 pAkt/Akt basal) (log2 ratio difference); higher = stronger HRG-induced Akt(T308) phosphorylation; conditions: miRNA mimic concentration 10 nM; time after transfection 72 h; heregulin 10 ng/ml; stimulation time 1 h
For each of the sequences below, state its HRG-induced Akt activation (log2).
One number for each entry.

Recorded HRG-induced Akt activation (log2), per entry:
CCACCACCGUGUCUGACACUU : 1.84
CAUCUUACUGGGCAGCAUUGGA : 2.05

Batch of 6 sequences: report HRG-induced Akt activation (log2) for each.
1. GAGCCAGUUGGACAGGAGC
2. UAAUACUGCCUGGUAAUGAUGA
3. UGAUAUGUUUGAUAUUGGGUU
4. UUUGGUCCCCUUCAACCAGCUA
5. ACACAGGGCUGUUGUGAAGACU
6. CUAUACAACCUACUGCCUUCCC

[1.77, 1.65, 1.75, 1.61, 1.74, 1.27]

---

test system: MCF7; experiment: HRG-induced Akt activation (dPAkt = log2 pAkt/Akt HRG-stimulated minus log2 pAkt/Akt basal) (log2 ratio difference); higher = stronger HRG-induced Akt(T308) phosphorylation; conditions: miRNA mimic concentration 10 nM; time after transfection 72 h; heregulin 10 ng/ml; stimulation time 1 h
For each of the sequences below, state its HRG-induced Akt activation (log2).
Give bare numbers.

Recorded HRG-induced Akt activation (log2), per entry:
AGUGCCUGAGGGAGUAAGAGCCC : 1.72
CAAAUUCGUAUCUAGGGGAAUA : 1.57
UCCCUGAGACCCUUUAACCUGUGA : 1.77
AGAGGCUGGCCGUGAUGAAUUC : 1.48
AUAUAAUACAACCUGCUAAGUG : 0.999

Batch of 4 sequences: report HRG-induced Akt activation (log2) for each.
1. UGCAACUUACCUGAGUCAUUGA
2. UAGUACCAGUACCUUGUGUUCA
3. AUCGUGCAUCCCUUUAGAGUGU
4. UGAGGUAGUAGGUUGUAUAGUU

[1.61, 1.19, 1.54, 1.26]

---

system: MCF7; test: HRG-induced Akt activation (dPAkt = log2 pAkt/Akt HRG-stimulated minus log2 pAkt/Akt basal) (log2 ratio difference); higher = stronger HRG-induced Akt(T308) phosphorylation; conditions: miRNA mimic concentration 10 nM; time after transfection 72 h; heregulin 10 ng/ml; stimulation time 1 h
measurementName: HRG-induced Akt activation (log2)
Give bare numbers.

Batch of 2 sequences: report HRG-induced Akt activation (log2) for each.
1. CACCAGGCAUUGUGGUCUCC
2. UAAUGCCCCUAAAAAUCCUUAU

[2.13, 0.932]

---

test system: MCF7; assay: HRG-induced Akt activation (dPAkt = log2 pAkt/Akt HRG-stimulated minus log2 pAkt/Akt basal) (log2 ratio difference); higher = stronger HRG-induced Akt(T308) phosphorylation; conditions: miRNA mimic concentration 10 nM; time after transfection 72 h; heregulin 10 ng/ml; stimulation time 1 h
measurementName: HRG-induced Akt activation (log2)
Numbers only.

Batch of 3 sequences: report HRG-induced Akt activation (log2) for each.
1. CAAGUCACUAGUGGUUCCGUU
2. GAACGGCUUCAUACAGGAGUU
3. CUCGGCGCGGGGCGCGGGCUCC

1. 1.49
2. 1.67
3. 1.37

Batch of 6 sequences: report HRG-induced Akt activation (log2) for each.
1. CUAGGUAUGGUCCCAGGGAUCC
2. AGAGGUAUAGGGCAUGGGAA
3. AGGUGGUCCGUGGCGCGUUCGC
4. UCUCGCUGGGGCCUCCA
5. CAAAACGUGAGGCGCUGCUAU
6. AACCAUCGACCGUUGAGUGGAC

1: 1.26; 2: 1.88; 3: 2.93; 4: 1.22; 5: 1.27; 6: 0.92

Batch of 5 sequences: report HRG-induced Akt activation (log2) for each.
1. CAAUCACUAACUCCACUGCCAU
2. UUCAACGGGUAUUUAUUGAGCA
3. CACUGGCUCCUUUCUGGGUAGA
4. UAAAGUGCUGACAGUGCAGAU
5. CAAGCUCGCUUCUAUGGGUCUG

1. 1.69
2. 1.34
3. 2.02
4. 1.52
5. 1.18

Batch of 6 sequences: report HRG-induced Akt activation (log2) for each.
1. CCUGGAAACACUGAGGUUGUG
2. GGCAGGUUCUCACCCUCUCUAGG
3. CUGCAAAGGGAAGCCCUUUC
4. ACGCCCUUCCCCCCCUUCUUCA
5. AACACACCUAUUCAAGGAUUCA
6. UCAGGCCAGGCACAGUGGCUCA

1: 1.61; 2: 2.11; 3: 1.21; 4: 1.22; 5: 1.11; 6: 1.57

Batch of 6 sequences: report HRG-induced Akt activation (log2) for each.
1. UCCGUCUCAGUUACUUUAUAGC
2. UCACUGUUCAGACAGGCGGA
3. CCCAGAUAAUGGCACUCUCAA
4. CUGGGAGAAGGCUGUUUACUCU
5. ACUGCAGUGAAGGCACUUGUAG
6. UUCACAUUGUGCUACUGUCUGC

[1.63, 2.02, 1.55, 1.04, 1.65, 1.59]

Checklist item: HRG-induced Akt activation (log2) tested on MCF7, entry CAACGGAAUCCCAAAAGCAGCUG , value?
1.51

---

For each of the sequences below, state its HRG-induced Akt activation (log2).
test system: MCF7; experiment: HRG-induced Akt activation (dPAkt = log2 pAkt/Akt HRG-stimulated minus log2 pAkt/Akt basal) (log2 ratio difference); higher = stronger HRG-induced Akt(T308) phosphorylation; conditions: miRNA mimic concentration 10 nM; time after transfection 72 h; heregulin 10 ng/ml; stimulation time 1 h
One number for each entry.

Recorded HRG-induced Akt activation (log2), per entry:
CACUAGAUUGUGAGCUCCUGGA : 1.69
GCCCAAAGGUGAAUUUUUUGGG : 1.33
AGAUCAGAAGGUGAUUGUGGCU : 1.56
AUCAUAGAGGAAAAUCCACGU : 2.13
GGUUUGGUCCUAGCCUUUCUA : 1.47

Batch of 3 sequences: report HRG-induced Akt activation (log2) for each.
1. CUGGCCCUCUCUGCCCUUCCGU
2. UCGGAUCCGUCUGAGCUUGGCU
3. GAAAGCGCUUCUCUUUAGAGG

1: 1.18; 2: 1.88; 3: 1.51

Batch of 6 sequences: report HRG-induced Akt activation (log2) for each.
1. GAAGUGUGCCGUGGUGUGUCU
2. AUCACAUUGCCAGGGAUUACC
3. UGCAGGACCAAGAUGAGCCCU
4. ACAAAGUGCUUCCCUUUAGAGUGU
5. UUCCUAUGCAUAUACUUCUUUG
6. AAUAUUAUACAGUCAACCUCU

1. 2.03
2. 1.54
3. 1.41
4. 1.41
5. 1.11
6. 1.21

Batch of 3 sequences: report HRG-induced Akt activation (log2) for each.
1. AAACUACUGAAAAUCAAAGAU
2. UUCUCCAAAAGGGAGCACUUUC
3. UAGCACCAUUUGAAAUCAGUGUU

1.76
2.3
1.47

Batch of 5 sequences: report HRG-induced Akt activation (log2) for each.
1. GCAUGGGUGGUUCAGUGG
2. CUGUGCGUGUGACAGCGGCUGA
3. AGGCUGCGGAAUUCAGGAC
4. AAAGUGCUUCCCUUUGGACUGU
5. UGUCUUGCAGGCCGUCAUGCA

[1.52, 0.692, 1.56, 0.806, 1.68]
